The reported measurements were obtained from PubChem BioAssay (NCATS).

# Measurement Description: qHTS for Inflammasome Signaling Inhibitors: IL-1-beta AlphaLISA screen against the NCATS CANVASS Library (AID 1347379);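 further: human THP-1 cells primed with LPS then triggered with ATP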
# Measurement Parameters: THP-1 LPS/ATP, IL-1B AlphaLISA secretion, 16 h; series mostly up to 57.5 µM
Results filed as inconclusive are left out. The source made the active and inactive calls. The call rests on the fitted dose curve; in most records, active means well fitted inhibition curve with a large enough effect; inconclusive means small, poorly fitted or top-dose-only effect; inactive means flat fitted curve, though single readings scatter.
Classes used: active, inactive

| Compound | Class Name |
| --- | --- |
| CC1=CC2=C[C@H](C)C[C@@]23OC(=C(C)C3=O)CC(C)(C)/C=C/C1=O | active |
| CN1C(=O)[C@]23SS[C@@]1(C)C(=O)N2[C@H]1Nc2ccccc2[C@]1(c1c[nH]c2ccccc12)[C@@H]3O | active |
| CN1CC[C@]2(c3cccc4c3N[C@@H]3N(C)CC[C@]43[C@@]34CCN(C)[C@@H]3Nc3ccccc34)c3ccccc3N[C@H]12 | active |
| C=C1[C@H]2CC[C@@]3(C=CC(=O)[C@@](C)(CCC(=O)Nc4c(O)ccc(C(=O)O)c4O)C3C2)[C@H]1O (stereo partly specified) | inactive |
| CC(C)=CCC[C@@H](C)[C@@H]1CC[C@@]2(C)C[C@H]3C(C)=CC(=O)[C@@H]3/C(C=O)=C\C[C@H]12 | active |
| COc1cc(/C=C/C(=O)O)ccc1O | inactive |
| CC(=O)O[C@H]1CC[C@@]2(C)C(CC[C@]3(C)C2CC=C2C4CC(C)(C)CC[C@]4(C)CC[C@]23C)C1(C)C (stereo partly specified) | inactive |
| O=C(O)CC1OCc2c(O)cccc21 (stereo unspecified) | inactive |
| CC12C[C@]3(O)O[C@@H](O1)[C@]1(COC(=O)c4ccccc4)[C@@H]3CC21OC1OC(CO)C(O)C(O)C1O (stereo partly specified) | inactive |
| COc1cc(/C=C2/C(=O)N(c3ccc(O)cc3C(=O)O)[C@H](c3ccc(O)c(OC)c3)C2C(=O)Nc2ccc(O)cc2C(=O)O)ccc1O (stereo partly specified) | inactive |
| C[C@@H]1O[C@H](c2c(O)cc(O)c3c(=O)cc(-c4ccc(O)cc4)oc23)[C@H](O)[C@H](O)[C@H]1O | inactive |
| C/C(=C\[C@H](C)C(=O)CCCC1CC(=O)NC(=O)C1)[C@@H]1OC(=O)/C=C/CC/C=C/C[C@@H](O)[C@@H]1C | active |
| C[C@@H]1C(=O)[C@]23CC[C@H]1C[C@]21O[C@H]2C(C)(C)C=CC(=O)[C@]23COC1=O | inactive |
| C[C@@]12C[C@@H](C[C@H]3C(=O)O[C@@H](c4ccoc4)[C@H](OC(=O)c4ccccc4)[C@@H]31)OC2=O | inactive |
| C=C1/C=C\C(CCC)=C\c2csc(n2)C(C)NC(=O)C[C@@]2(CC(=O)O)CCC(=C)[C@H](C1)S2 (stereo partly specified) | inactive |
| O=C(O)[C@@]12CO[C@@]3(O)C4CCN(CC[C@H]31)[C@H]4c1c2[nH]c2ccccc12 | inactive |

---

# Measurement Description: qHTS for Inhibitors of Plasmodium falciparum (HB3) proliferation (AID 504318); further: nearly all actives have a fitted effect of over 60% in size
# Measurement Parameters: P. falciparum HB3 in erythrocytes, SYBR Green DNA, 72 h; series mostly up to 7.21 µM
Results filed as inconclusive are left out. Calls of active or inactive are those of the source. Calls follow the shape of the dose curve; as a rule, active = well fitted inhibition curve with a large enough effect; inconclusive = small, poorly fitted or top-dose-only effect; inactive = flat fitted curve, though single readings scatter.
Classes used: 1.0 = active, 0.0 = inactive

| Compound | Class Name |
| --- | --- |
| CCN1C(=O)[C@@H]2[C@H]3[C@H](O)[C@H](O)CC(=NO[C@H](C)CN4CCCc5nc(C)c(C)cc54)[C@@H]3CC[C@H]2C1=O | 0.0 |
| COC(=O)[C@@H]1C[C@@]23C(=NN=C(SC)C2Nc2ccccc23)N1C(C)=O (stereo partly drawn) | 0.0 |
| COC(=O)c1nnc(N[C@@H](Cc2c[nH]c3ccccc23)C(=O)OC)nc1C(=O)OC | 0.0 |
| C#CCN1C(=O)[C@@]2(CC(C)=CC[C@@H](C)O2)c2ccccc21 | 0.0 |
| C#CCN1C(=O)[C@]2(OCCC=C[C@@H]2C)c2cc(OC)ccc21 | 0.0 |
| COc1ccccc1C=CC1=CC2(C)CC1(C)C(c1ccccc1OC)CC2=O (stereo not drawn) | 1.0 |
| CC1=CC[C@@H](COc2ccccc2)O[C@@]2(C1)C(=O)N(Cc1ccccc1C(F)(F)F)c1cccc(Br)c12 | 1.0 |
| C#CCCCON=C1C[C@@H](O)[C@H](O)[C@H]2[C@@H]3C(=O)N(c4ccc(F)cc4F)C(=O)[C@@H]3CC[C@H]12 | 0.0 |
| C=CC[C@@H]1C=CC(ON=CC[C@@H]2C=C[C@@H](OC(C)=O)[C@@H](COC(C)=O)O2)[C@H](CO)O1 (stereo partly drawn) | 0.0 |
| COC(=O)C1=C[C@H]([C@@H](C)[C@H](OC)c2ccccc2Br)[C@H]2c3ccccc3O[C@@H]12 | 0.0 |
| N#Cc1ccc2c(c1)C[C@]1(c3ccsc3)Oc3c(c(=O)oc4ccccc34)[C@H]2O1 | 0.0 |
| C[C@@H]1CC[C@H]2C(=O)O[C@H](COc3ccc(C(C)(C)C)cc3)CN2[C@@H]1c1ccc(Br)cc1 | 0.0 |
| C[C@H]1Cc2c(-c3ccccc3)nc3c(c2CO1)CN(C(=O)NCc1ccco1)CC3 | 0.0 |
| O=C1CCCC=C1C(O)COCc1ccccc1 (stereo not drawn) | 0.0 |
| C[C@]12C[C@@](C)(C=C1C=Cc1ccc(F)cc1)C(=O)C[C@H]2c1ccc(F)cc1 | 1.0 |
| COC(=O)C1=C(C(=O)OC)[C@@H]2N(C)c3ccc(OC)cc3[C@@]23C[C@@H](C(=O)OC)N(C(=O)c2cccs2)C3=N1 | 0.0 |
| CC(CCN1CCCCc2nc(C)c(C)cc21)=NO[C@@H](C)CN1CCCCc2nc(C)c(C)cc21 | 0.0 |
| COC(=O)[C@@]1(C=C[C@@H](C)[C@H](OC)c2ccccc2Br)[C@@H]2OCCC[C@@H]21 | 0.0 |
